Test: Stability studies (storage at 60 °C in closed bottles or at 40 °C / 75 % RH in an open bottle; related substances by HPLC)
Details: initial, before storage
Counter-ions that a name gives are not always drawn.
Please assign n whenever Initial Related Substances is at or above 0.08%, and y whenever it is below.

In [3]: df
Out[3]:
                                   compound  category_label
0  N[C@@H](CC(=O)N1CCn2c(nnc2C(F)(F)F)C1)Cc1cc(F)c(F)cc1F [A: Phosphate, Sitagliptin Phosphate]               n
1  N[C@@H](CC(=O)N1CCn2c(nnc2C(F)(F)F)C1)Cc1cc(F)c(F)cc1F [Q: HCl II]               n
2  N[C@@H](CC(=O)N1CCn2c(nnc2C(F)(F)F)C1)Cc1cc(F)c(F)cc1F [H: Glycolate]               y
3  N[C@@H](CC(=O)N1CCn2c(nnc2C(F)(F)F)C1)Cc1cc(F)c(F)cc1F [B: HCl I, Sitagliptin Hydrochloride Form I]               y
4  N[C@@H](CC(=O)N1CCn2c(nnc2C(F)(F)F)C1)Cc1cc(F)c(F)cc1F [O: Sulfate II]               n
5  N[C@@H](CC(=O)N1CCn2c(nnc2C(F)(F)F)C1)Cc1cc(F)c(F)cc1F [C: Lactate, Sitagliptin Lactate]               n
6  N[C@@H](CC(=O)N1CCn2c(nnc2C(F)(F)F)C1)Cc1cc(F)c(F)cc1F [Base, reference compound]               n
7  N[C@@H](CC(=O)N1CCn2c(nnc2C(F)(F)F)C1)Cc1cc(F)c(F)cc1F [N: Mesylate II]               n

====

Test: Stability studies (storage at 60 °C in closed bottles or at 40 °C / 75 % RH in an open bottle; related substances by HPLC)
Conditions: 2 weeks, 40°C/75 % RH, open; 20160 min
Where a name gives a salt, the structure may show the parent alone.
test readout: Related Substances 2 W 40°C/75 % RH open (%)

>>> print(df.to_string())
                                   molecule                              test_readout  unit_label  assay_result
0  N[C@@H](CC(=O)N1CCn2c(nnc2C(F)(F)F)C1)Cc1cc(F)c(F)cc1F [N: Mesylate II]  Related Substances 2 W 40°C/75 % RH open           %          0.16
1  N[C@@H](CC(=O)N1CCn2c(nnc2C(F)(F)F)C1)Cc1cc(F)c(F)cc1F [C: Lactate, Sitagliptin Lactate]  Related Substances 2 W 40°C/75 % RH open           %          0.34
2  N[C@@H](CC(=O)N1CCn2c(nnc2C(F)(F)F)C1)Cc1cc(F)c(F)cc1F [O: Sulfate II]  Related Substances 2 W 40°C/75 % RH open           %          0.23

====

Assay: Stability studies (storage at 60 °C in closed bottles or at 40 °C / 75 % RH in an open bottle; related substances by HPLC)
Conditions: 4 weeks, 60°C, closed bottle; 40320 min
Counter-ions that a name gives are not always drawn.
Item-by-item account of Related Substances 4 w 60°C Closed bottle
test readout: Related Substances 4 w 60°C Closed bottle

In [3]: df
Out[3]:
                                   compound  assay_result
0  N[C@@H](CC(=O)N1CCn2c(nnc2C(F)(F)F)C1)Cc1cc(F)c(F)cc1F [B: HCl I, Sitagliptin Hydrochloride Form I]         0.01%
1  N[C@@H](CC(=O)N1CCn2c(nnc2C(F)(F)F)C1)Cc1cc(F)c(F)cc1F [A: Phosphate, Sitagliptin Phosphate]         0.38%
2  N[C@@H](CC(=O)N1CCn2c(nnc2C(F)(F)F)C1)Cc1cc(F)c(F)cc1F [E: Sulfate I, Sitagliptin Sulfate Form I]         0.02%
3  N[C@@H](CC(=O)N1CCn2c(nnc2C(F)(F)F)C1)Cc1cc(F)c(F)cc1F [H: Glycolate]         4.06%

====

Test: Hygroscopicity studies (water content after storage at 43 %, 75 % and 93 % relative humidity)
Type: physicochemical
Conditions: 2 weeks 75 % rh
Where a name gives a salt, the structure may show the parent alone.
Everything with Hygroscopicity (water content) lower than 0.5% is not met; everything else, including exactly 0.5%, is met.

>>> print(df.to_string())
                                   compound  category_label
0  N[C@@H](CC(=O)N1CCn2c(nnc2C(F)(F)F)C1)Cc1cc(F)c(F)cc1F [B: HCl I, Sitagliptin Hydrochloride Form I]             met
1  N[C@@H](CC(=O)N1CCn2c(nnc2C(F)(F)F)C1)Cc1cc(F)c(F)cc1F [Base, reference compound]         not met
2  N[C@@H](CC(=O)N1CCn2c(nnc2C(F)(F)F)C1)Cc1cc(F)c(F)cc1F [E: Sulfate I, Sitagliptin Sulfate Form I]             met
3  N[C@@H](CC(=O)N1CCn2c(nnc2C(F)(F)F)C1)Cc1cc(F)c(F)cc1F [A: Phosphate, Sitagliptin Phosphate]         not met

====

Assay: Hygroscopicity studies (water content after storage at 43 %, 75 % and 93 % relative humidity)
Format: physicochemical
Details: initial sample, before storage
Structures can show the parent of a compound that is named as a salt.
test readout: Initial water content (%)

In [3]: df
Out[3]:
                                   compound           test_readout  assay_result
0  N[C@@H](CC(=O)N1CCn2c(nnc2C(F)(F)F)C1)Cc1cc(F)c(F)cc1F [J: Mesylate II]  Initial water content          1.47
1  N[C@@H](CC(=O)N1CCn2c(nnc2C(F)(F)F)C1)Cc1cc(F)c(F)cc1F [O: Sulfate II]  Initial water content          1.88
2  N[C@@H](CC(=O)N1CCn2c(nnc2C(F)(F)F)C1)Cc1cc(F)c(F)cc1F [K: Mesylate I]  Initial water content          0.68
3  N[C@@H](CC(=O)N1CCn2c(nnc2C(F)(F)F)C1)Cc1cc(F)c(F)cc1F [H: Glycolate]  Initial water content         1.039

====

Assay: Hygroscopicity studies (water content after storage at 43 %, 75 % and 93 % relative humidity)
Format: physicochemical
Settings: 2 weeks 93 % rh
Counter-ions that a name gives are not always drawn.
# Hygroscopicity (water content) per record follows
test readout: Hygroscopicity (water content) (%)

                                   compound                    test_readout  assay_result
0  N[C@@H](CC(=O)N1CCn2c(nnc2C(F)(F)F)C1)Cc1cc(F)c(F)cc1F [Base, reference compound]  Hygroscopicity (water content)           0.3
1  N[C@@H](CC(=O)N1CCn2c(nnc2C(F)(F)F)C1)Cc1cc(F)c(F)cc1F [E: Sulfate I, Sitagliptin Sulfate Form I]  Hygroscopicity (water content)          2.81
2  N[C@@H](CC(=O)N1CCn2c(nnc2C(F)(F)F)C1)Cc1cc(F)c(F)cc1F [A: Phosphate, Sitagliptin Phosphate]  Hygroscopicity (water content)          0.82
3  N[C@@H](CC(=O)N1CCn2c(nnc2C(F)(F)F)C1)Cc1cc(F)c(F)cc1F [B: HCl I, Sitagliptin Hydrochloride Form I]  Hygroscopicity (water content)          4.49

====

Listed below: Related Substances 12 weeks 40°C/75 % RH open bottle values for each entry.
Experiment: Stability studies (storage at 60 °C in closed bottles or at 40 °C / 75 % RH in an open bottle; related substances by HPLC)
Conditions: 12 weeks, 40°C/75 % RH, open bottle; 120960 min
Structures can show the parent of a compound that is named as a salt.
test readout: Related Substances 12 weeks 40°C/75 % RH open bottle (%)

                                   compound  unit_label  assay_result
0  N[C@@H](CC(=O)N1CCn2c(nnc2C(F)(F)F)C1)Cc1cc(F)c(F)cc1F [M: Phosphate H2O]           %          0.12
1  N[C@@H](CC(=O)N1CCn2c(nnc2C(F)(F)F)C1)Cc1cc(F)c(F)cc1F [A: Phosphate, Sitagliptin Phosphate]           %          0.37
2  N[C@@H](CC(=O)N1CCn2c(nnc2C(F)(F)F)C1)Cc1cc(F)c(F)cc1F [C: Lactate, Sitagliptin Lactate]           %          0.59
3  N[C@@H](CC(=O)N1CCn2c(nnc2C(F)(F)F)C1)Cc1cc(F)c(F)cc1F [B: HCl I, Sitagliptin Hydrochloride Form I]           %          0.15
4  N[C@@H](CC(=O)N1CCn2c(nnc2C(F)(F)F)C1)Cc1cc(F)c(F)cc1F [N: Mesylate II]           %          0.11
5  N[C@@H](CC(=O)N1CCn2c(nnc2C(F)(F)F)C1)Cc1cc(F)c(F)cc1F [H: Glycolate]           %          0.99
6  N[C@@H](CC(=O)N1CCn2c(nnc2C(F)(F)F)C1)Cc1cc(F)c(F)cc1F [O: Sulfate II]           %          0.46
7  N[C@@H](CC(=O)N1CCn2c(nnc2C(F)(F)F)C1)Cc1cc(F)c(F)cc1F [Q: HCl II]           %          0.44
8  N[C@@H](CC(=O)N1CCn2c(nnc2C(F)(F)F)C1)Cc1cc(F)c(F)cc1F [E: Sulfate I, Sitagliptin Sulfate Form I]           %          0.08
9  N[C@@H](CC(=O)N1CCn2c(nnc2C(F)(F)F)C1)Cc1cc(F)c(F)cc1F [Base, reference compound]           %          0.39
